biological target: Alpha-ketoglutarate-dependent dioxygenase alkB homolog 3 (Homo sapiens); assay: Inhibition of demethylase activity of PCA-1 (unknown origin) using 3-methyl cytosine oligo DNA as […] after 1 hr by RT-PCR analysis

| cpd.smiles | inhibition |
| --- | --- |
| Cc1[nH]n(-c2nc3ccccc3[nH]2)c(=O)c1Cc1ccc(Cl)cc1 | 46% |
| Cc1[nH]n(-c2ncccn2)c(=O)c1C | -4% |
| Cc1[nH]n(-c2nc3ccccc3n2C)c(=O)c1C | 21% |
| O=c1c(Cc2ccccc2)c(-c2ccccc2)[nH]n1-c1nc2ccccc2[nH]1 | 2% |
| Cc1[nH]n(-c2nc3ccccc3[nH]2)c(=O)c1Cc1ccc(Cl)cc1Cl | 11% |
| Cc1[nH]n(-c2nc3ccccc3s2)c(=O)c1C | -3% |
| Cc1[nH]n(-c2ccccc2)c(=O)c1C | 20% |
| Cc1[nH]n(-c2nc3ccccc3o2)c(=O)c1C | 0% |
| Cc1[nH]n(-c2ccccn2)c(=O)c1C | -4% |

---

assay: AUC (0 to 24 hrs) in Sprague-Dawley rat serum at 0.5 mg/kg, iv; type: ADME, organism-based; parameters: time < 24 hr, dose 0.5 mg/kg, route intravenous

| cpd.smiles | AUC(0-t) at 24 h (ng·h/mL) |
| --- | --- |
| Cc1ccc2nc(-n3[nH]c(C)c(Cc4ccccc4)c3=O)[nH]c2c1 | 150 |

---

experiment: Drug level in Sprague-Dawley rat serum at 32 mg/kg, po after 1 hr; format: ADME, organism-based; design: dose 32 mg/kg, route oral
quantity.kind: concentration at 1 h

| cpd.smiles | quantity.kind | reported.result |
| --- | --- | --- |
| Cc1ccc2[nH]c(-n3[nH]c(C)c(C)c3=O)nc2c1 | concentration at 1 h | 1080 ng/mL |

---

assay: AUC (0 to 24 hrs) in Sprague-Dawley rat serum at 32 mg/kg, po; format: ADME, organism-based; set-up: time < 24 hr, dose 32 mg/kg, route oral
quantity.kind: AUC(0-t) at 24 h (ng·h/mL)

| cpd.smiles | reported.result |
| --- | --- |
| Cc1ccc2nc(-n3[nH]c(C)c(Cc4ccccc4)c3=O)[nH]c2c1 | 690 |

---

target: Alpha-ketoglutarate-dependent dioxygenase alkB homolog 3 (Homo sapiens, UniProt Q96Q83); test: Inhibition of demethylase activity of PCA-1 (unknown origin) using 3-methyl cytosine oligo DNA as substrate after 1 hr by RT-PCR analysis
Sequence (Q96Q83 whole entry): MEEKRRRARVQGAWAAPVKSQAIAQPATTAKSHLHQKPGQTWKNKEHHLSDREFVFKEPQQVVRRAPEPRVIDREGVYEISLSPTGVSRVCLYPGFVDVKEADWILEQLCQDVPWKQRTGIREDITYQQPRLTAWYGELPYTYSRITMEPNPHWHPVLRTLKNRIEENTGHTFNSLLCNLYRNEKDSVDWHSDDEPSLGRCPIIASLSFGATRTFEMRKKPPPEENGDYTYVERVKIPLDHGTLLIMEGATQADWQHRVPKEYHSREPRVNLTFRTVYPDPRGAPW
Below, each entry is listed alongside its reported IC50.

| cpd.smiles | test.target | result.modifier | IC50 (nM) |
| --- | --- | --- | --- |
| Cc1[nH]n(-c2nc3ccccc3[nH]2)c(=O)c1C | Alpha-ketoglutarate-dependent dioxygenase alkB homolog 3 (Homo sapiens, UniProt Q96Q83) | = | 4000 |
| Cc1ccc2[nH]c(-n3nc(-c4ccccc4)c(-c4ccccc4)c3O)nc2c1 | Alpha-ketoglutarate-dependent dioxygenase alkB homolog 3 (Homo sapiens, UniProt Q96Q83) | = | 5800 |
| COc1ccc(Cc2c(C)[nH]n(-c3nc4ccc(C)cc4[nH]3)c2=O)cc1 | Alpha-ketoglutarate-dependent dioxygenase alkB homolog 3 (Homo sapiens, UniProt Q96Q83) | = | 680 |
| Cc1[nH]n(-c2nc3ccc(C(C)(C)C)cc3[nH]2)c(=O)c1Cc1ccccc1 | Alpha-ketoglutarate-dependent dioxygenase alkB homolog 3 (Homo sapiens, UniProt Q96Q83) | = | 640 |
| Cc1[nH]n(-c2ccccn2)c(=O)c1C(=O)Nc1ccccc1 | Alpha-ketoglutarate-dependent dioxygenase alkB homolog 3 (Homo sapiens, UniProt Q96Q83) | = | 1700 |
| Cc1[nH]n(-c2nc3ccccc3[nH]2)c(=O)c1Cc1ccc(F)cc1 | Alpha-ketoglutarate-dependent dioxygenase alkB homolog 3 (Homo sapiens, UniProt Q96Q83) | = | 600 |
| Cc1[nH]n(-c2nc3ccccc3[nH]2)c(=O)c1CC(=O)O | Alpha-ketoglutarate-dependent dioxygenase alkB homolog 3 (Homo sapiens, UniProt Q96Q83) | = | 15000 |
| Cc1[nH]n(-c2nc3ccccc3n2C)c(=O)c1C | Alpha-ketoglutarate-dependent dioxygenase alkB homolog 3 (Homo sapiens, UniProt Q96Q83) | > | 10000 |
| Cc1[nH]n(-c2nc3ccccc3[nH]2)c(=O)c1Cc1ccc(Cl)cc1Cl | Alpha-ketoglutarate-dependent dioxygenase alkB homolog 3 (Homo sapiens, UniProt Q96Q83) | > | 10000 |
| Cc1[nH]n(-c2nc3cc(-c4ccc(Cl)cc4)ccc3[nH]2)c(=O)c1Cc1ccccc1 | Alpha-ketoglutarate-dependent dioxygenase alkB homolog 3 (Homo sapiens, UniProt Q96Q83) | = | 1500 |
| Cc1ccc2nc(-n3[nH]c(C)c(Cc4ccccc4)c3=O)[nH]c2c1C | Alpha-ketoglutarate-dependent dioxygenase alkB homolog 3 (Homo sapiens, UniProt Q96Q83) | > | 10000 |

src = ChEMBL document CHEMBL3112445
